- assayed system: KRas^G12S (Homo sapiens, UniProt P01116, G12S)
- Construct: Biotinylated KRas (corresponding to amino acids 1-169, produced at Accelegan Inc.); biotin (biotinylated); purchased Accelegan Inc
- Sequence (P01116 1-169 isoform P01116-2 G12S): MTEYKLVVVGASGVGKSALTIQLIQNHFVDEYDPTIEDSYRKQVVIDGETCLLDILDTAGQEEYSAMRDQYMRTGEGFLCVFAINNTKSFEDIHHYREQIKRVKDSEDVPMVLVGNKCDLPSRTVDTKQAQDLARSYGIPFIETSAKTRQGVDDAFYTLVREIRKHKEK
- assay comment: KRas binding assay (TR-FRET tracer displacement), KRas G12S
- condition info: TR-FRET tracer displacement, KRas G12S
Below is a list of entries, each paired with its recorded IC50 value.
Express it in nM; write the number only.

GET /values?readout=IC50&item= C#Cc1c(F)ccc2cc(O)cc(-c3ncc4c(N5CCCC6(CCO6)C5)nc(OC[C@@]56CCCN5C[C@H](F)C6)nc4c3F)c12 (some centres unmarked) [Example 935]
5

Another compound to check: CCc1cccc2cc3[nH]ncc3c(-c3ncc4c(N5CCCC6(CC(=O)N6)C5)nc(OC[C@@]56CCCN5C[C@H](F)C6)nc4c3F)c12 (some centres unmarked) [Example 771]
9

Another compound to check: Cc1cc2[nH]nnc2c(-c2ncc3c(N4CCCC5(CNC(=O)N5)C4)nc(OCC45CCCN4CCC5)nc3c2F)c1C (centres unmarked) [Example 856]
2510
